Where do the numbers come from? From patent US20240279345A1.

- TARGET_OF_ASSAY: rh-α5β1 (Homo sapiens, UniProt P05556+P08648)
- Sequence (P08648 42-894 limits assumed): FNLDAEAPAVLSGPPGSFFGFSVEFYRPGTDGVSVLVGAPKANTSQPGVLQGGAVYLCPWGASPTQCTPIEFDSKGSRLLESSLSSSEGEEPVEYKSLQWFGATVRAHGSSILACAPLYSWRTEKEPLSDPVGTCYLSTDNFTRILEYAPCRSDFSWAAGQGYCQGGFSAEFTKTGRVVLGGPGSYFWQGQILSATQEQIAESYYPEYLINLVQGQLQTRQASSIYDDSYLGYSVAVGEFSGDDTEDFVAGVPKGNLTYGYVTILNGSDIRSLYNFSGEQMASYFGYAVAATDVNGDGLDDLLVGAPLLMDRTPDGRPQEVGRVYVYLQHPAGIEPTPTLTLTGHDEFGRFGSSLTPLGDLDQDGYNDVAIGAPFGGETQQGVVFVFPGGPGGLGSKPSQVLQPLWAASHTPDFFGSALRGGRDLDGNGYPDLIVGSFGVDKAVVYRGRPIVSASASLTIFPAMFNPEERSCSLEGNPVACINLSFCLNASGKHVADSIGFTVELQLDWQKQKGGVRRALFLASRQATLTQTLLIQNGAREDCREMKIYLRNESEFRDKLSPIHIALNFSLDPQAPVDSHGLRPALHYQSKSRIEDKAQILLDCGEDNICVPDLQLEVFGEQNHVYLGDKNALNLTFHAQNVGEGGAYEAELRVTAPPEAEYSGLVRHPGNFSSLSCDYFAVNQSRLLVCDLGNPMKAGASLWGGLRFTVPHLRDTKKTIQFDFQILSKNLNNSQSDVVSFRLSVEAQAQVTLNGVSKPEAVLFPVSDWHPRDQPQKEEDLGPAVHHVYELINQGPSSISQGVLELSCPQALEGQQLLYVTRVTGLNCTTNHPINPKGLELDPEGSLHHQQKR
- Sequence (P08648 895-995 limits assumed): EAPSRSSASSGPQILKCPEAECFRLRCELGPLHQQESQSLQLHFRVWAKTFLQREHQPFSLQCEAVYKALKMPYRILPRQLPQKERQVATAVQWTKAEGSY
- Sequence (P05556 21-728 limits assumed): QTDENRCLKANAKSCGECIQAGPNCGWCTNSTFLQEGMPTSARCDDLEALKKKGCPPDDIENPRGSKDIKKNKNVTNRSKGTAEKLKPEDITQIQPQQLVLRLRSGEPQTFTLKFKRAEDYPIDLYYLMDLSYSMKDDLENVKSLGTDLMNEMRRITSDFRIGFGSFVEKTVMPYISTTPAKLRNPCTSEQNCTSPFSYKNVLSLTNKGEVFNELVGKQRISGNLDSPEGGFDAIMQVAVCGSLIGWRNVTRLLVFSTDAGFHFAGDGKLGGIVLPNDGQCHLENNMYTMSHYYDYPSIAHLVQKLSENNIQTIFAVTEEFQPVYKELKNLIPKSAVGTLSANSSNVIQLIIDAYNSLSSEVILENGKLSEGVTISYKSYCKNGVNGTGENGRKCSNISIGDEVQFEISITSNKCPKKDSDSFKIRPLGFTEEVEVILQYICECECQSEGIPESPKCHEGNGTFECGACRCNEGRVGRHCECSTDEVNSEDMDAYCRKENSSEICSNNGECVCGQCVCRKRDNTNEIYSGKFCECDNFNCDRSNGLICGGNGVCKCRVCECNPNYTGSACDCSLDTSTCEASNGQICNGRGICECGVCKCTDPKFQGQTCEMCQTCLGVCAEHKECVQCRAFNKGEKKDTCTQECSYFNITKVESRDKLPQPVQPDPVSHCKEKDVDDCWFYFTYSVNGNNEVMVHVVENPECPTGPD
- EXPERIMENT_SUMMARY: Competition binding studies by Biolayer Interferometry (epitope groups)
- STUDY_CONDITIONS: antibody preincubated with rh-α5β1; A2-7A05 immobilized on sensor
READOUT_NAME: binding of rh-α5β1 complexed with antibody to A2-7A05 on the sensor

MOLECULE	RESULT
A-15B08: anti-α5β1 antibody, VH SEQ ID NO:25, VL SEQ ID NO:26; tested as mouse hybridoma antibody and as human IgG4 chimera (antibody, V domains shown, A-15B08 VH Sequence; A-15B08 VL Sequence, tested as mouse hybridoma antibody and as human IgG4 chimera) VH: QVQLKESGPGLVAPSQSLSITCTISGFSLTSYGVHWVRQPPGKGLEWLVVIWSDGSTTYNSTLKSRLSISKDNSKSQVFFKMNSLQTDDTAMYYCARHYDYDGDWFAYWGQGTLVTVSA VL: QIVLTQSPAIMSASLGERVTMTCTASSRVSSNSLHWYQQKPGSSPKLWIYSTSNLASGVPARFSGSGSGTSYSLTISSMEAEDAATYYCHQYLRSPPTFGGGTKLEIK	able to bind
A2-5D10: anti-α5β1 antibody, VH SEQ ID NO:51, VL SEQ ID NO:52 (antibody, V domains shown, A2-5D10 VH Sequence; A2-5D10 VL Sequence) VH: QVQLKESGPGLVAPSQSLSITCTISGFSLTSYGVHWVRQPPGKGLEWLVVIWSDGSTTYNSTLKSRLSISKDNSKSQVFLKMNSLQTDDTAMYYCARHYDYDGDWFAYWGQGTLVTVSA VL: QILLTQSPAIMSASLGERVTMTCTASSSVSSRCLHWYQQKPGSSPKLWIYSTSNLASGVPARFRGSGSGTSYSLTISSMEAEDAATYYCHQYYRSPPTFGGGTKLEIK	able to bind
C-14D12: anti-α5β1 antibody, VH SEQ ID NO:109, VL SEQ ID NO:110; tested as mouse hybridoma antibody and as human IgG4 chimera (antibody, V domains shown, C-14D12 VH Sequence; C-14D12 VL Sequence, tested as mouse hybridoma antibody and as human IgG4 chimera) VH: QVQLKESGPDLVAPSQSLSITCTVSGFSLTDYGVHWVRQPPGKGLEWLVVIWSDGSTTYNSALKSRLSITKDTSKRQVFLKMNSLQTDDTAMYYCARHAPSFIRYGSRYDALDYWGQGTSVTVSS VL: QIVLTQSPAIMSASLGERVTLTCTASSSVTSSFLHWYQQKPGSSPKLWIYSTSNLASGVPARFSGSGSGTSYSLTISSMEAEDAATYYCHQYHRSPPTFGGGTKLEIK	able to bind
